Target: purified recombinant Cdc25-C enzyme (MBP-Cdc25C protein) (Homo sapiens)
Sequence (P30307 whole entry): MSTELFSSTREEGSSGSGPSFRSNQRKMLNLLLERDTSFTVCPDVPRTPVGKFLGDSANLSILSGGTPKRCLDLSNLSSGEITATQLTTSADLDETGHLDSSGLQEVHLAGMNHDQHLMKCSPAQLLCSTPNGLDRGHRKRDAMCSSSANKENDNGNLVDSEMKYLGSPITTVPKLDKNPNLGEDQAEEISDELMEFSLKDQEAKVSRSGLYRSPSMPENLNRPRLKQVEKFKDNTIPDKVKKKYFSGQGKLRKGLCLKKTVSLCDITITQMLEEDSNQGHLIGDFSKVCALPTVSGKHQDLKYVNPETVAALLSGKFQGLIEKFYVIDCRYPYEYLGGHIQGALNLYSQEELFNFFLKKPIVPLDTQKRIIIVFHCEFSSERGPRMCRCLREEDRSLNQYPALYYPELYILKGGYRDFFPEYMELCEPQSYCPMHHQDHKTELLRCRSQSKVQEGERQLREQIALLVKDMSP
Assay: Phosphatase activity of the purified recombinant Cdc25C enzyme (OMFP dephosphorylation, fluorescence)
Conditions: OMFP 500 μM, 4 hours at 30° C.
Reported IC50 values are given for each entry in this list.

Previously resolved entries follow.
CN(CCNC(=S)Nc1ccc(F)c(F)c1)CCNc1cc(N2CCCC2)nc(N2CCCC2)n1 | ≤ 1 µM
CN(CCNC(=O)NCc1ccccc1)CCNc1cc(N2CCCC2)nc(N2CCCC2)n1 | ≤ 5 µM
CN(CCNC(=S)Nc1cccc([N+](=O)[O-])c1)CCNc1cc(N2CCCC2)nc(N2CCCC2)n1 | ≤ 1 µM

**Q:** Form field: reported IC50 of CN(CCNC(=S)Nc1ccc(-n2cccn2)cc1)CCNc1cc(N2CCCC2)nc(N2CCCC2)n1
**A:** ≤ 5 µM

**Q:** Likewise for CN(CCNc1cc(N2CCCC2)nc(N2CCCC2)n1)CCNS(=O)(=O)c1cccc(C(F)(F)F)c1 ?
**A:** ≤ 5 µM

**Q:** Likewise for CNS(=O)(=O)c1ccc(NC(=S)NCCN(C)CCNc2cc(N3CCCC3)nc(N3CCCC3)n2)cc1 ?
**A:** ≤ 1 µM

**Q:** Likewise for CN(CCNC(=S)Nc1ccc(Cl)c(Cl)c1)CCNc1cc(N2CCCC2)nc(N2CCCC2)n1 ?
**A:** ≤ 5 µM

**Q:** Likewise for CNCCCN(C)CCCN(C)c1cc(N2CCCC2)nc(N2CCCC2)n1 ?
**A:** ≤ 5 µM

**Q:** Likewise for O=C(NCCOCCNc1cc(N2CCCC2)nc(N2CCCC2)n1)Nc1ccc(Cl)c(C(F)(F)F)c1 ?
**A:** ≤ 5 µM
